For each entry below, report its IC90 value.
# Test system: M. tuberculosis H37Rv with meropenem, growth inhibition
# protocol: M. tuberculosis growth inhibition with meropenem, dose response, H37Rv, set 2 (AID 504702);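 further: growth read by Alamar Blue after 7 days plus overnight incubation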
# setup-conditions: measured here: IC90 growth with meropenem

Required: IC90, one value per compound below.
1. CCc1ccc2nc(/N=C(\N)NC(=O)c3ccccc3)nc(C)c2c1
2. c1ccc(OCc2nnc(-c3ccccc3)o2)cc1
3. O=C(CSc1n[nH]c(=O)n1C1CC1)c1ccc2c(c1)OCCO2
4. Cc1ccc(OCC(=O)Nc2cccc3ccccc23)c(C)c1
5. CCOc1ccc2[nH]cc(C(=O)OC)c2c1
6. S=C(Nc1ccccc1)Nc1ccc(Cl)cn1
7. Cc1onc(-c2c(Cl)cccc2Cl)c1/C(N)=N/OC(=O)C1CC1

Result:
["> 25 µM", "> 25 µM", "> 25 µM", "> 25 µM", "> 25 µM", "> 25 µM", "> 25 µM"]

---

I'd be grateful if you could share measured growth inhibition for these entries.
# protocol: M. tuberculosis growth inhibition with meropenem, dose response, H37Rv, set 2 (AID 504702);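 further: growth read by Alamar Blue after 7 days plus overnight incubation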
# setup-conditions: M. tuberculosis H37Rv with meropenem, growth inhibition; at 25 µM (top of the series)
Answers are plain numbers, in %.

Here are 5 compounds together with their reported answers.
{"columns": ["compound", "test-result"],
 "data": [
  ["COc1ccc2nc(NC(=O)COc3ccc(C)cc3)sc2c1", -3.26],
  ["Cc1cc2ccccc2[nH]1", 0.33],
  ["O=C(COc1ccc(Cl)cc1)Nc1nc2ccc(F)cc2s1", -1.17],
  ["O=C(COc1ccccc1)Nc1nc2ccccc2s1", -1.01],
  ["CCOc1ccc2[nH]c(C)cc2c1", -0.67]
]}

Give me growth inhibition for each of these compounds, listed below.
1. COc1ccc2nc(NC(=O)COc3ccccc3C(C)C)sc2c1
2. COC(=O)c1ccc2nc(NC(=O)COc3ccccc3)sc2c1
3. CCOc1ccc2nc(NC(=O)COc3ccc(Cl)c(C)c3)sc2c1

Result:
[-2.44, 15.1, -5.37]

---

# Test system: M. tuberculosis H37Rv with meropenem, growth inhibition
# protocol: M. tuberculosis growth inhibition with meropenem, dose response, H37Rv, set 2 (AID 504702);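 further: growth read by Alamar Blue after 7 days plus overnight incubation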
For each record, write down the corresponding IC50.

Batch request: IC50 for each of the following molecules.
1. N/C(=N\c1nc2ccccc2o1)NC(=O)c1ccccc1Br
2. Cc1ccccc1OCC(=O)Nc1ccccc1-c1ccccc1
3. CCOc1ccc2nc(NC(=O)C3(c4ccccc4)CCCC3)sc2c1
4. O=C(Cc1ccccc1Cl)Nc1nc2ccccc2[nH]1
5. CC(=O)c1c(C)n(-c2ccccc2)c2ccc(O)cc12
6. OCCCc1cn(-c2ccccc2)c2ccccc12

Result:
3.04 µM
14.6 µM
1.2 µM
18.9 µM
20.1 µM
14.2 µM

Provide the reported IC50 of each entry below, same order.
1. c1ccc(-c2cc(N3CCOCC3)nc3ccccc23)cc1
2. CCOc1ccc2c(c1)c(C(C)=O)c(C)n2-c1cccc(Cl)c1
3. O=C(CCS(=O)(=O)c1ccc(F)cc1)Nc1nnc(-c2cccs2)o1
4. COc1ccc2c(c1)cc(C)n2-c1ccccc1

Result:
["10 µM", "10.5 µM", "22.4 µM", "6.88 µM"]

---

# protocol: M. tuberculosis growth inhibition with meropenem, dose response, H37Rv, set 2 (AID 504702);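 further: growth read by Alamar Blue after 7 days plus overnight incubation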
# setup-conditions: M. tuberculosis H37Rv with meropenem, growth inhibition; at 25 µM (top of the series)
value-type: growth inhibition (%)
Give bare numbers, in %.

{"columns": ["compound", "test-result"],
 "data": [
  ["Cc1cc2ccccc2n1-c1ccccc1", -0.06],
  ["COc1ccc2[nH]c(C)cc2c1", 0.56],
  ["Cc1ccccc1OCC(=O)Nc1ncn[nH]1", 0.97],
  ["CC(=O)c1c(C)n(-c2cccc(Cl)c2)c2ccc(O)cc12", -2.38]
]}

# return growth inhibition for each item in the list
1. CCC(CC)c1nnc(NC(=O)c2ccc(N3CCCCC3)c([N+](=O)[O-])c2)s1
2. Cc1cccc(C)c1OCC(=O)Nc1nc2ccc(Cl)cc2s1

Result:
[2.49, -2.26]

Where do these numbers come from? They come from PubChem BioAssay AID504702.
